- assay.method.text: yeast display, Sf9 membrane polyspecificity reagent, FACS + sequencing; frameworks hold sequencing errors

| monomer.sequence | polyreactivity (PSR sort gate) |
| --- | --- |
| QVQLVESGGGLVQAGGSLRLSCAASGRIFYFYAMGLYTQAPGKERELVAVISYGGDRTSYADSVKGRFTISRDNAKNTVYLQMNSLKPEDSAVYYCAARPFYRGYYYWGQGTQVTVSS | high polyreactivity |
| QVQLVESGGGLFQAGGSLRLSCAANGSIFDYYAMGWYRQSPGKERELVAAITRSGVRTYYADSVKGRFTISRDNAKNTVYLQMNSMKPEDTAVYYCGAVYYPLSFDNDYWGQGTQVTVSS | high polyreactivity |
| QVQLVESGGGLVQAGGSLRLSCAASGRTFGNYAMGWYRQAPAKESELVAAITGRGGSTHYADSVKGRFTISRDNAKYTVYLQMNSLKPEDTAVYDCAADYRYNRGITSNKDYDYWGQGTQVTVSS | low polyreactivity |
| QVQLVESGGGLVHAGGSLRLSCAASGSIFSIYAMGWYRQAPGTERELVAAITKSGGSTYYADSVKGRFTISRDNAKNTVYLQMNSLKPEDTAVYYCAAEPQHYVGYYYWGQGNQVTVSS | high polyreactivity |
| QVQLVESGGGLVQAGGSLRLICAASGRIFCRNTMGWYRQAPGKERELVAAINYSGGRTYYADSVKGRFTISRDNAKNTVYLLMNSLKPEDTAVYYCAATPPVATNGRYYYWGQGTQVTVSS | low polyreactivity |
| QVQLVDSGGGLVQAGGSLRLSCAASGFTFRDYAMGWYRQAPRKERELVAAISRSGDSTYYADSVKGRFTISRDNAKNTVYLQMNSLKPEDTAVYYCNTAGFYWLHYTMDYWGQGTQVTVSS | high polyreactivity |
| QVQLVESGGGLVQAGGSLRLSCAASGRTFQANAMGWYRQAPGTERELVAAITGRGGTTYYADSVKGRFTISRDTAKNTVYVQMYSLKPEDTAVYYCALALSGYGFWGYDYWGLGTQVTVSS | low polyreactivity |
| QVQLVESGGGLVQAGGSLRLSSAASGRIFNSYAMGWYRQAPGKERELVAIIRSSGTTYYADSVKGRFTISRDNAKNSVYVQMNSLKPEDTAVYDCAADPYYWRQFNYDYWGHGTQVTVSS | high polyreactivity |
| QVQLVESGGGLVQAGGSLRLSCAASGRIFRYYTMGWYRQAPGKVRELVAAITRRGGITNYADSVTGRFTISRDNAKNTVYLQMNSLKPEDTAVYYCAAKSVSQGDDYWGQGTQVTVSS | high polyreactivity |
| QVQLVESGGALVQAGGSLRLTCAASGSIYYVNAMGWYRQAPGKERELVAAISVRGGRTYYADSVKGRFTISRDNAKNTFYLQMNSLKPEDTEVYYCATRISTVGRYDYWGQGTQVTVSS | high polyreactivity |
| QVQLVESGGGLVQAGGSLRLSCAASGSIFGLYAMGWYRQAPGKERELVAAISASGGSTYYADSVKGRFTISRDNAKNTVYLQMNSLKPEDTAVYYCAKKQRYYGRMDYWGQGTQVTVSS | high polyreactivity |
| QVQLVESGGGVVQAGGSLSLSCAASGNTFPVYAMGWYRQASAKERELVATITSGGSTNYADSVKGRFTISRDNAKNTVYLQMNSLKPEDTAVYYCARRAVYSKRRYDYWGQGTQVTVSS | low polyreactivity |
